experiment: chemical genetic growth profiling, strain panel (AID 1159580);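 also: tested at 20 µM; growth read once vehicle control cultures reached saturation at 30 °C; lower values mean less growth of the strain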; details: S. cerevisiae deletion strains, growth OD, locus YKL085W, strain MDH1 (second series)
Out of some 5,500 compounds screened, about 2,000 (36%) were called active. Inconclusive results (about 18%) are left out. Rule as the data show it: active = normalized growth mostly below about 0.91 (no sharp cut-off); inconclusive = no clear call, values can overlap the other calls; inactive = mostly above about 0.92. The list shows a part of the results.
// classify into active, inactive

Call for entry C[C@]12CC[C@H](O)C[C@H]1CCC1C2CC[C@]2(C)[C@@H](C3=CC(=O)OC3)[C@@H](O)C[C@]12O (stereo not given in full) :
inactive

Call for entry CC[C@@]1(O)C(=O)OCc2c1cc1n(c2=O)Cc2cc3ccccc3nc2-1 :
active

Call for entry CC12CCC3C(CCC4(O)CC(O)CCC34/C=N/NC(N)=O)C1(O)CCC2C1=CC(=O)OC1 (stereo not given) :
inactive

Call for entry C[C@@H]1O[C@@H](O[C@H]2CC[C@]3(C=O)C4CC[C@]5(C)[C@@H](C6=CC(=O)OC6)CC[C@]5(O)C4CC[C@]3(O)C2)[C@H](O)[C@H](O)[C@H]1O (stereo not given in full) :
inactive

Call for entry C[C@H]1O[C@@H](O[C@H]2[C@@H](O)C[C@H](O[C@H]3[C@@H](O)C[C@H](O[C@H]4CC[C@]5(C)C6CC[C@]7(C)[C@@H](C8=CC(=O)OC8)CC[C@]7(O)C6CC[C@@H]5C4)O[C@@H]3C)O[C@@H]2C)C[C@H](O)[C@@H]1O (stereo not given in full) :
inactive

Call for entry Cc1ccc(C(C)C)c(O)c1C(=O)O :
active

Call for entry CC(=O)OC1CC[C@@]2(C)C(CCC3C2CC[C@]2(C)C(C4=CC(=O)OC4)C(OC(C)=O)CC32O)C1 (stereo not given in full) :
inactive

Call for entry CC1(C)O[C@@H]2CC3C4C[C@H](F)C5=CC(=O)CC[C@]5(C)C4[C@@H](O)C[C@]3(C)[C@]2(C(=O)CO)O1 (stereo not given in full) :
inactive

Call for entry COC1C(O)C(O[C@H]2CC[C@]3(C=O)C4C(CC[C@]3(O)C2)[C@@]2(O)CC[C@H](C3=CC(=O)OC3)[C@@]2(C)C[C@H]4OC(C)=O)OC(C)C1OC(C)=O (stereo not given in full) :
active

Call for entry C[C@H]1O[C@@H](O[C@H]2[C@@H](O)C[C@H](O[C@H]3[C@@H](O)C[C@H](O[C@H]4CC[C@]5(C)C6C[C@@H](O)[C@]7(C)[C@@H](C8=CC(=O)OC8)CC[C@]7(O)C6CC[C@@H]5C4)O[C@@H]3C)O[C@@H]2C)C[C@H](O)[C@@H]1O (stereo not given in full) :
inactive

Call for entry CC1(C)[C@@H]2CC[C@@]1(C)C(=O)C2 :
inactive

Call for entry CO[C@H]1[C@H](O)[C@@H](O[C@H]2CC[C@]3(C=O)C4CC[C@]5(C)[C@@H](C6=CC(=O)OC6)CC[C@]5(O)C4CC[C@@H]3C2)O[C@@H](C)[C@@H]1O (stereo not given in full) :
inactive

Call for entry Nc1ccc(S(=O)(=O)Nc2ncccn2)cc1 :
inactive

Call for entry Cc1c(OCC(F)(F)F)ccnc1CS(=O)c1nc2ccccc2[nH]1 (stereo not given) :
inactive

Call for entry CC[C@@]1(O)C(=O)OCc2c1cc1n(c2=O)Cc2cc3cc(O)ccc3nc2-1 :
inactive

Taken from PubChem BioAssay AID1159580.
